Tested on: ABL2
Settings: concentration: 1 μM,replicates: in singlicate; n = 1;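 also: KINOMEscan kinase panel screen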
readoutType: %Inh (%)

• CN1CCN(CCNc2nc3cc(Oc4ccc(NC(=O)Nc5cc(C(F)(F)F)ccc5F)cc4)ccc3[nH]2)CC1.Cl.Cl [GW768504] = 0
• O=c1[nH]cc(-c2ccc(O)cc2)c2sc(-c3ccncc3)cc12 [GSK1033723] = 0
• Cc1n[nH]c2cc(Nc3ccnc(Nc4cccc(CN5CCOCC5)c4)n3)ccc12 [GW682569] = 23
• Cc1ccc(Nc2ccnc(Nc3ccc4c(c3)CS(=O)(=O)C4)n2)cc1O.Cl [GW579362] = 99.3

----------
System: RSK1(Kin.Dom.1-N-terminal)
Construct: gene RPS6KA1
Conditions: concentration: 1 μM,replicates: in singlicate; n = 1
readoutType: %Inh

- COC(=O)Nc1nc2cc(Oc3ccc(NC(=O)Nc4cc(C(F)(F)F)ccc4Cl)cc3)ccc2[nH]1.Cl [GW697465]: 0%
- Cl.c1ccc(Oc2ccc(Nc3ccnc4cc(-c5ccc(CN6CCNCC6)o5)ccc34)cc2)nc1 [GW567142]: 2%
- CC(C)c1nc(-c2cccc(NS(=O)(=O)c3ccccc3)c2)c(-c2ccnc(Nc3ccc4c(c3)CN(C)CC4)n2)s1 [GSK1649598]: 73%
- COc1cc2c(Nc3ccc(NC(=O)c4ccccc4)cc3)ncnc2cc1OCCCN1CCOCC1 [GSK301329]: 11%
- FC(F)(F)c1cc(Br)cc(Nc2nccc(-c3cnn4ncccc34)n2)c1 [GW810578]: 0%
- CS(=O)c1ccc(-c2coc3ccc(-c4n[nH]c(=O)o4)cc23)cc1 (stereo not drawn): 0%
- C[C@@H]1CCN(C(=O)N2CCCC2)C[C@@H]1N(C)c1ncnc2[nH]ccc12: 0%
- O=C(Nc1ccccc1)c1cccc(Oc2ccc3nccn3n2)c1: 0%
- Cn1ccc2ncnc(Oc3ccc(NC(=O)Nc4cc(C(C)(C)C)on4)c(Cl)c3)c21: 0%

----------
System: PIP5K1C
Conditions: concentration: 1 μM,replicates: in singlicate; n = 1
# if value of %Inh reaches 20%, tag True; if it stays below, tag False

- N#Cc1cccc(C(=O)NC2CCN(c3ccnc(Nc4ccc(F)cc4)n3)C2)c1 (stereo not drawn) [GSK1379708]: True
- Nc1nccc(-c2ccc3c(N)n[nH]c3c2)n1 [GSK1034945]: True
- Cc1ccn2nc(-c3ccc(F)cc3)c(-c3ccncc3)c2c1.Cl [GW457859]: True
- O=C(NOCC1CC1)c1cc(Br)c(F)c(F)c1Nc1ccc(I)cc1Cl: True
- CSc1nccc(-c2c(-c3ccc(F)cc3)ncn2CCCN2CCOCC2)n1.Cl [SB-217146]: False
- C[C@@H](Oc1cc(-n2cnc3cc(-c4ccncc4)ccc32)sc1C(N)=O)c1ccccc1Cl [GSK479719]: True
- c1ccc(Oc2ccc(Nc3ccnc4ccc(-c5ccccn5)cc34)cc2)cc1 [GW407034]: True
- CN1CCN(CCNc2nc3cc(Oc4ccc(NC(=O)Nc5cc(C(F)(F)F)ccc5F)cc4)ccc3[nH]2)CC1.Cl.Cl [GW768504]: False
- CC(C)S(=O)(=O)N1CCN(Cc2ccc3c(c2)nc(NC(=O)c2ccsc2)n3C[C@H](O)c2ccccc2)CC1 [GW635815]: False
- FC(F)(F)c1cc(Br)cc(Nc2nccc(-c3cnn4ncccc34)n2)c1 [GW810578]: False
- COc1cc(Nc2nccc(N3CCC(NC(=O)c4cccc(C#N)c4)C3)n2)cc(OC)c1OC (stereo not drawn) [GSK1379751]: True
- O=C(Nc1cccc(Oc2ccc3nccn3n2)c1)Nc1cccc(C(F)(F)F)c1: True
- CCCC(=O)Nc1n[nH]c2ncccc12 [SB-601436]: False
- O=c1[nH]cc(-c2ccc(O)cc2)c2sc(-c3ccncc3)cc12 [GSK1033723]: True
- O=C1NCCc2[nH]c(-c3ccncc3)cc21: False
- Cn1ccc2ncnc(Oc3ccc(NC(=O)Nc4cccc(C(F)(F)F)c4)c(F)c3)c21: False
- COC(=O)c1cccc(NC(=O)NC2CCN(c3ccnc(Nc4cc(OC)c(OC)c(OC)c4)n3)C2)c1 (stereo not drawn) [GSK1379767]: True
- O=C(Nc1ccc(Oc2ccc3nc(NC(=O)C4CC4)cn3n2)c(F)c1)c1cccn(-c2ccccc2)c1=O: True
- CCn1c(-c2nonc2N)nc2cncc(CNC3CCNCC3)c21.Cl [SB-747651]: True
- C[C@@H]1CNc2c(sc3ccc4nc(-c5ccc(O)cc5)ccc4c23)C(=O)N1: False
- COc1cccc(C2=C(Nc3cccc(Cl)c3)C(=O)NC2=O)c1 [SB-341556]: True
- Cl.Cl.NC[C@H](CC1CCCCC1)NC(=O)c1ccc(-c2ccnc3[nH]ccc23)s1 [GSK1581428]: True
- OCCn1cc(-c2cnc3nnn(Cc4ccc5ncccc5c4)c3n2)cn1: False
- Cn1ccc2ncnc(Oc3ccc(NC(=O)Nc4cc(C(C)(C)C)on4)c(Cl)c3)c21: False
- Cc1ccc2c(-c3ccnc(Nc4ccc(C(F)(F)F)cc4)n3)cnn2n1 [GW819776]: False
- CNC(=O)c1ccccc1Nc1nc(Nc2cccc(CS(C)(=O)=O)c2)ncc1C.O=CO [GSK1520489]: True
- Cn1cc(-c2cccc3c(N)c(C(N)=O)nnc23)cn1: False
- CC(C)c1nc(-c2cccc(NS(=O)(=O)c3ccccc3)c2)c(-c2ccnc(Nc3ccc4c(c3)CN(C)CC4)n2)s1 [GSK1649598]: False
- C[C@@H]1CNc2c(sc3ccc4nc(-c5ccncc5)ccc4c23)C(=O)N1: False
- O=C(Nc1ccccc1)c1cccc(Oc2ccc3nccn3n2)c1: True
- CS(=O)c1ccc(-c2coc3ccc(-c4n[nH]c(=O)o4)cc23)cc1 (stereo not drawn): True
- COc1cccc(OC)c1C(=O)Nc1cccc(-c2nn3ccccc3c2-c2ccnc(Nc3cccc(F)c3)n2)c1 [GSK361065]: False
